Target: T1, TfR1 (human, Sino Biological Inc.) (human, UniProt P02786 89-760)
T1 construct: Bought protein; the catalogue number printed for it (11020-MM02) is the same as that printed for the anti-TfR1 primary antibody, so the construct cannot be told; also called TfFR1; receptor TfR1
T1 sequence (P02786 89-760 limits assumed): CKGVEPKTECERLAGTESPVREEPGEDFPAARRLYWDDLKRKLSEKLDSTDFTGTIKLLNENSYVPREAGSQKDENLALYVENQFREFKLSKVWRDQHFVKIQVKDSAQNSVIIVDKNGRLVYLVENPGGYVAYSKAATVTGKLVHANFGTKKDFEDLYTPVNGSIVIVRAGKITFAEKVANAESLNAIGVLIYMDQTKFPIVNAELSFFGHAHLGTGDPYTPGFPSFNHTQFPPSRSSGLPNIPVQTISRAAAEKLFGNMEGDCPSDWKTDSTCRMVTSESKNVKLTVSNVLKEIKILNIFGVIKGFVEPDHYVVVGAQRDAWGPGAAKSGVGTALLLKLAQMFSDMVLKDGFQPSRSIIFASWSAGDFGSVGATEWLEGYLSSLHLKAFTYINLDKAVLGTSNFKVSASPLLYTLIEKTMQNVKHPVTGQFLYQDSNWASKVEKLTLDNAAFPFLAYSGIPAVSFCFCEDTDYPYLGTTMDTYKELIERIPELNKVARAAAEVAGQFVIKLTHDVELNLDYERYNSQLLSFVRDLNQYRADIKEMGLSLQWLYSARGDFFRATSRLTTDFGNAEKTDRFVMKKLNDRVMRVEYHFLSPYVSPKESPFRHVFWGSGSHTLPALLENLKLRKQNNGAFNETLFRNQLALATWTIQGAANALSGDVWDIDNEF
Assay: ELISA, protein coated at 20 ug/mL, 2 ug/mL TfR1, anti-TfR1 detection
VALUE KIND: ELISA value (OD630)
Provide the reading as a plain figure in OD630.

Record excerpt, results attached:
- BINDER: "NC-loop (designed binder) MSSQIRQNYHQDSEAAVNRQINLYLQASYTYLSLGFYFDRDDVALEGVSHFFRELAEEKREGYERLLKMQNQRGGRIFLQDIKKPDCDEWESGLNAMECALHLEKKLNQALLDLHKLATDKNDPHLCDFLETHFLDEEVKLIKKMGDHLTNLRKMGAPEAGLGEYLFERLTLKHD"
  UNIT ANNOTATION: "OD630"
  ELISA value: 1.23
- BINDER: "N terminal (designed binder) MSSQIRQNYHQDSEAAVNRQINLYLQASYTYLSLGFYFDRDDVALEGVSHFFRELAEEKREGYERLLKMQNQRGGRIFLQDIKKPAEDEWGKTPDAMKAAMALEKKLNQALLDLHKLATDKNDPHLCDFLETHFLDEEVKLIKKMGDHLTNLHRLGGPEAGLGEYLFERLTLKHD"
  UNIT ANNOTATION: "OD630"
  ELISA value: 0.88

C-loop (designed binder) MSSQIRQNYSTDVEAAVNSLVNLYLQASYTYLSLGFYFDRDDVALEGVSHFFRELAEEKREGYERLLKMQNQRGGRALFQDIKKPDCDEWESGLNAMECALHLEKKLNQALLDLHALGSARTDPHLCDFLETHFLDEEVKLIKKMGDHLTNLRKMGAPEAGLGEYLFERLTLKHD has a reported ELISA value of 0.31
